- Tested on: SNB-19 CNS
- Measurement notes: NCI tumour cell line growth inhibition, 48 h
Assay endpoint: TGI

Worked set:
COc1ccc(-c2ccncc2)cc1C(N)=O    > 25 µM
CC1=NC2=Nc3nc(C)cc[n+]3CN2C=C1    > 100 µM
CC(=O)c1ccc2c(c1)C1C=CCC1[C@H](c1cc3c(cc1Br)OCO3)N2 (stereo partly specified)    33.2 µM
COc1cc2c(cc1OC)C(=O)N(c1ccc(O)cc1)C2=O    > 100 µM
Nc1nonc1-c1nc2cnccc2n1C1CC1    > 25 µM

Q: System SNB-19 CNS. Read-out TGI. Item CC1/C=C/[C@@]2(C)CCC(C(C)(C)O)C2C(O)C[C@](C)(O)/C=C/C1 (stereo partly specified) . Report value.
Ans: > 100 µM
